Quick reference for protein stability index among some variants
B1: KIAA0774 (parent)
chain: FEDEVKRLGWQQQAELQELEERLQ

variants of: B1; assay: protein stability index of a GFP-peptide fusion (GPS, HEK-293T) (PSI 1-6); higher = more stable; details: c terminus: a fixed tail appended;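 further: lentivirally expressed fusions sorted by FACS into six bins by GFP to DsRed ratio, PSI derived from sequencing read proportions per bin multiplied by bin number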
Quantity: protein stability index

{"Var": "V5F", "Value observed": 2.77}
{"Var": "E20R", "Value observed": 3.87}
{"Var": "Q12N", "Value observed": 4.8}
{"Var": "L19V", "Value observed": 4.53}
{"Var": "V5G", "Value observed": 3.99}
{"Var": "E2R", "Value observed": 4.41}
{"Var": "K6A", "Value observed": 4.54}
{"Var": "E15W", "Value observed": 2.85}
{"Var": "E20P", "Value observed": 4.8}
{"Var": "L8R", "Value observed": 4.05}
{"Var": "L23R", "Value observed": 4.58}
{"Var": "E21Y", "Value observed": 3.88}
{"Var": "Q13F", "Value observed": 4.42}
{"Var": "A14W", "Value observed": 2.53}
{"Var": "E4C", "Value observed": 2.93}
{"Var": "Q11L", "Value observed": 4.46}
{"Var": "R7W", "Value observed": 4.03}
{"Var": "K6F", "Value observed": 4.38}
{"Var": "E15D", "Value observed": 4.46}
{"Var": "L19R", "Value observed": 3.68}
{"Var": "Q12T", "Value observed": 3.45}
{"Var": "V5H", "Value observed": 4.15}
{"Var": "L8W", "Value observed": 3.4}
{"Var": "E20Y", "Value observed": 3.71}
{"Var": "E21Q", "Value observed": 4.67}
{"Var": "E2L", "Value observed": 3.05}
{"Var": "E2G", "Value observed": 3.14}
{"Var": "F1L", "Value observed": 4.06}
{"Var": "L8P", "Value observed": 4.45}
{"Var": "E20S", "Value observed": 4.49}
{"Var": "Q24N", "Value observed": 4.48}
{"Var": "E18R", "Value observed": 2.74}
{"Var": "R22W", "Value observed": 4.31}
{"Var": "K6M", "Value observed": 4.17}
{"Var": "E4Y", "Value observed": 3.64}
{"Var": "E21T", "Value observed": 4.69}
{"Var": "K6P", "Value observed": 4.48}
{"Var": "E4M", "Value observed": 3.12}
{"Var": "E15I", "Value observed": 2.64}
{"Var": "Q12A", "Value observed": 3.83}
{"Var": "E18G", "Value observed": 4.68}
{"Var": "V5R", "Value observed": 2.75}
{"Var": "L19G", "Value observed": 5.4}
{"Var": "L16H", "Value observed": 4.84}
{"Var": "L8A", "Value observed": 3.66}
{"Var": "E4R", "Value observed": 3.32}
